target: T1, Aβ1–42 fibrils (UniProt P05067 672-713); experiment: SPR; Biacore 1000; Aβ1–42 fibrils (6800 RU) immobilised on a CM5 chip by amine coupling; PBS pH 7.4; analytes 50 µg/ml, 5 µl/min for 2 minutes, ambient temperature; semi-quantitative: response in % of ACI-80-Kϕ; details: both partners purified
T1 construct: amyloid-β peptide Aβ1–42, cut from the amyloid precursor protein (APP), in fibrillar form; Aggregated (fibrillar) state of the same peptide as m15; also called fibrillar Aß1–42; Aβ fibrils; source: bought: JPT Biotech or Bachem AG (HPLC purified peptide); fibrils formed at 37°C (7 days in PBS pH 7.4 for SPR; five days in 50 mM Tris-HCl pH 7.4 for ELISA)
T1 sequence (P05067 672-713): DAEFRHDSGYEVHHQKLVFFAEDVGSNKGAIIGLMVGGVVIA
Square brackets hold non-standard residues; d marks the D form. Primed or numbered codes have the meaning given here. Ends that are not written are not given here. FITC′ = fluorescein isothiocyanate (ϕ)
The following binders are shown together with reported Interaction [%] (maximal response during injection, relative to ACI-80-Kϕ) values.
Quantity kind: Interaction [%] (maximal response during injection, relative to ACI-80-Kϕ)

| Binder | Result |
| --- | --- |
| [dS][dH][dY][dR][dH][dI][dS][dP][dA][dQ][dK][dK](FITC′) (D-enantiomeric derivative of ACI-80 (D1): N-terminal glutamine deleted (Q1X), V12K, added C-terminal lysine; also called D1-Q1X-V12K-Kϕ; source: synthetic peptide (JPT Peptide Technologies GmbH, Berlin)) [ACI-88-Kϕ] | 365% |
| [dS][dH][dY][dR][dH][dI][dS][dP][dA][dQ][dV][dK](FITC′) (D-enantiomeric derivative of ACI-80 (D1): N-terminal glutamine deleted (Q1X), added C-terminal lysine; also called D1-Q1X-Kϕ; source: synthetic peptide (JPT Peptide Technologies GmbH, Berlin)) [ACI-82-Kϕ] | 393% |
| [dP][dS][dH][dY][dR][dH][dI][dS][dP][dA][dQ][dK][dK](FITC′) (also: [19F]-4-fluorobenzoyl label, place not given here, D-enantiomeric derivative of ACI-80 (D1): Q1P, V12K, added C-terminal lysine, fluorinated; also called D1-Q1P-V12K-K[^19F]ϕ; source: synthetic peptide, reacted with [^19F]-N-succinimidyl-4-fluorobenzoate (SFB), HPLC purified) [[^19F]-ACI-89-Kϕ] | 476% |
| [dS][dF][dY][dR][dH][dI][dS][dP][dA][dQ][dV][dK](FITC′) (D-enantiomeric derivative of ACI-80 (D1): N-terminal glutamine deleted (Q1X), H3F, added C-terminal lysine; also called D1-Q1X-H3F-Kϕ; source: synthetic peptide (JPT Peptide Technologies GmbH, Berlin)) [ACI-85-Kϕ] | 229% |
| [dQ][dS][dH][dY][dR][dH][dI][dS][dP][dA][dQ][dK][dK](FITC′) (D-enantiomeric derivative of ACI-80 (D1): V12K, added C-terminal lysine; also called D1-V12K-Kϕ; source: synthetic peptide (JPT Peptide Technologies GmbH, Berlin)) [ACI-87-Kϕ] | 324% |
